Please find below pKi measurements for Cathepsin K (Homo sapiens), combined from several publications.
pKi: −log10 of the molar value.

>>> print(df.to_string())
                                   molecule  property  meas_value
0  C[C@@H](CNc1cccc(C(N)=O)c1)NC(=O)[C@H](CC(C)(C)C)NC(=O)c1ccc(-c2cccc(F)c2)o1       pKi      > 6.00
1  COC(=O)c1cccc(NC[C@H](C)NC(=O)[C@H](CC2CCCCC2)NC(=O)c2ccc(-c3cccc(F)c3)o2)c1       pKi      > 5.00
2  CS(=O)(=O)Nc1ccc(C(=O)N[C@@H](CC2CCCCC2)C(=O)NCCN2CCc3cc(F)ccc32)cc1       pKi      > 5.00
3  CC[C@H](NC(=O)O[C@@H](CC1CCCCC1)C(=O)N1CCCC1)C(=O)c1nc2ccc(F)cc2o1       pKi        6.73
4  O=C(N[C@@H](CSCc1ccccc1)C(=O)N1CC[C@H]2OCC(=O)[C@H]21)c1ccoc1       pKi      < 5.00
5  C[C@@H](CNc1ccc(OC(F)(F)F)cc1)NC(=O)[C@H](CC1CCCC1)NC(=O)O[C@@H]1CCOC1       pKi      > 5.00

Now look at this entry.
# assay system Cathepsin K (Homo sapiens): give pKi of CC(C(=O)N[C@@H](CC1CCCCC1)C(=O)NCCN1CCc2cc(F)ccc21)c1ccc(O)cc1 (stereo partly shown) < 5.00

* * *

The following compounds were reported with Ki values on Cathepsin K (Homo sapiens, UniProt P43235) in different studies.

Take a look at these entries with their results.
                                   compound  meas_value
0  COC(=O)c1ccc(COC[C@@H](CN2CCc3cc(F)ccc32)NC(=O)[C@H](CCC2CCCCC2)NC(=O)c2cccc(OC)c2)cc1     > 10 µM
1  Cc1nn(C)c(Cl)c1S(=O)(=O)N[C@@H](CC1CCCCC1)C(=O)NCCN1CCc2cc(F)ccc21     > 10 µM
2  O=C(N[C@@H](Cc1ccc(O)cc1)C(=O)N1CC[C@H]2OCC(=O)[C@H]21)c1cccc2ccccc12    > 100 µM
3  N#C[C@H](COCc1ccccc1Cl)NC(=O)O[C@@H](CC1CCCCC1)C(=O)N1CCOCC1     13.8 µM
4  CC(C)CC(NC(=O)C1CCCCCC1)C(=O)c1nnc(SCCN(C)C)o1 (stereo not drawn)    0.048 µM
5  C[C@@H](CNc1ccccc1C(N)=O)NC(=O)[C@H](CC1CCCCC1)NC(=O)c1ccc(-c2cccc(F)c2)o1     < 10 µM
6  CC[C@H](NC(=O)O[C@H](C(=O)N1CCOCC1)C1CCCCC1)C(=O)c1nc2ccc(F)cc2o1    0.278 µM
7  C[C@H]1OCC(=O)[C@]1(C)NC(=O)[C@H](CC1CCCCC1)NC(=O)c1ccoc1     > 50 µM

Could you now consider this next compound?
For Cathepsin K (Homo sapiens, UniProt P43235), give the measured Ki of the entry CC(C)C[C@H](NC(=O)c1cc2ccccc2s1)C(=O)N[C@]12CCC[C@H]1OCC2=O < 2 µM

* * *

Listed below are compounds with Ki for Cathepsin K (Homo sapiens, UniProt P43235), each taken from published literature.

Completed entries (count: 6):
In [3]: df
Out[3]:
                                   compound  property   meas_value
0  Cc1cccc(C(=O)N[C@@H](CC2CCCCC2)C(=O)NCCN2CCc3cc(F)ccc32)c1        Ki   < 10000 nM
1  CC(C)C[C@H](NC(=O)[C@H](CC(C)C)NC(=O)OCc1ccccc1)C(=O)Cn1c(-c2ccc(F)cc2)noc1=O        Ki        36 nM
2  CC(C)CC(C(=O)N[C@H]1C(=O)CO[C@@H]1C)c1cccc(-c2ccccc2)c1 (mixture of isomers)        Ki    < 1000 nM
3  C[C@@H]1OCC(=O)[C@H]1NC(=O)[C@H](CC1CCCCC1)SCc1ccco1        Ki  > 100000 nM
4  Cc1noc(C)c1NC(=O)N[C@@H](CC1CCCCC1)C(=O)NCCN1CCc2cc(F)ccc21        Ki   > 10000 nM
5  CC(C)C[C@H](NC(=O)[C@@H]1CCCC[C@@H]1NC(=O)c1ccccc1)C(=O)c1n[nH]c(=O)o1        Ki        86 nM

Read the next record carefully.
State Ki (Cathepsin K (Homo sapiens, UniProt P43235)) of O=C(N[C@@H](CC1CCCCC1)C(=O)N[C@]12CCC[C@H]1OCC2=O)c1ccsc1 . > 50000 nM

* * *

We begin with Ki values for Cathepsin K (Homo sapiens), as collected from the published literature.

>>> df
                                   compound  meas_value
0  C[C@@H](CNc1ccc(OC(F)(F)F)cc1)NC(=O)[C@H](CC1CCCCC1)NC(=O)c1cnn(-c2cccc(F)c2)c1     > 10 µM
1  CC(C)(C)CC(NC(=O)C1CCCCC1)C(=O)C(=O)NN1C(=O)CCC1=O (stereo not shown)    0.004 µM
2  O=C(N[C@H](C(=O)N[C@@H](COCc1ccccc1)CN1CCc2cc(F)ccc21)c1ccc(Cl)cc1Cl)c1ccc(F)c(F)c1     > 10 µM
3  O=C(NC(CCC1CCCCC1)C(=O)NC(COCc1ccccc1)CN1CCc2cc(F)ccc21)c1cc2ccccc2[nH]1 (mixture of isomers)     > 10 µM
4  C[C@H]1OCC(=O)[C@H]1NC(=O)[C@H](Cc1ccccc1)OCc1cccc2ccccc12 (racemic)    > 100 µM
5  CC(C)C[C@H](NC(=O)[C@H](CC(C)C)NC(=O)OCc1ccccc1)C(=O)CN1CCCc2ccccc2C1      0.1 µM

Continue with the compound presented below.
Quote Cathepsin K (Homo sapiens) Ki for entry O=C(N[C@H]1COCC1=O)O[C@@H](CC1CCCCC1)C(=O)N1CCOCC1 . > 30 µM
